system: TT2609-C02 (Thyroid Gland Carcinoma); test: combination Emax (second highest fraction inhibited in the dose matrix, 72 h); higher = more inhibition; extreme values may be limits of the assay
combination Emax of 0.3 or higher: Y. Under 0.3: N.

// inclusive: combination Emax at least 0.3? input: COc1nnc2ccc(N3CCC(c4ccc(OCCN5CCN(C)C(=O)[C@H]5C)cc4)CC3)nn12 [AZD5153] + Cn1cnc2c(F)c(Nc3ccc(Br)cc3Cl)c(C(=O)NOCCO)cc21 [Selumetinib] (first compound max 1 µM, 7x7, partner max 10 µM)
Y

// inclusive: combination Emax at least 0.3? input: C[C@@H](c1ccc2nccn2c1)n1nnc2ncc(-c3cnn(C)c3)nc21 [Savolitinib] + Cc1c2c(nn1C)CSCc1cc(n(C)n1)CSc1cc(c3ccccc3c1)OCCCc1c(C(=O)O)n(C)c3c-2c(Cl)ccc13 [AZD5991] (first compound max 1 µM, 7x7, partner max 1 µM)
N

// inclusive: combination Emax at least 0.3? input: Cc1cc2ncnn2cc1Nc1ncc2c(n1)n(C1CCOCC1)c(=O)n2C [AZD7648] + C[C@@H]1COCCN1C2=NC(=NC(=C2)C3(CC3)[S@](=N)(=O)C)C4=C5C=CNC5=NC=C4 [AZD6738] (first compound max 10 µM, 7x7, partner max 10 µM)
N

// inclusive: combination Emax at least 0.3? input: CCN(CCO)CCCOc1ccc2c(Nc3cc(CC(=O)Nc4cccc(F)c4)[nH]n3)ncnc2c1 [AZD2811] + C[C@@H]1COCCN1C2=NC(=NC(=C2)C3(CC3)[S@](=N)(=O)C)C4=C5C=CNC5=NC=C4 [AZD6738] (first compound max 1 µM, 7x7, partner max 10 µM)
Y

// inclusive: combination Emax at least 0.3? input: COc1nnc2ccc(N3CCC(c4ccc(OCCN5CCN(C)C(=O)[C@H]5C)cc4)CC3)nn12 [AZD5153] + CN(CC[C@H](CSC1=CC=CC=C1)NC2=C(C=C(C=C2)S(=O)(=O)NC(=O)C3=CC=C(C=C3)N4CCC(CC4)[C@H](C5=CC=CC=C5C6=CC=C(C=C6)Cl)O)S(=O)(=O)C(F)(F)F)CCO [AZD4320] (first compound max 1 µM, 7x7, partner max 1 µM)
Y

// inclusive: combination Emax at least 0.3? input: Cc1cc2ncnn2cc1Nc1ncc2c(n1)n(C1CCOCC1)c(=O)n2C [AZD7648] + CN(C)CCCOc1ccc(-c2ccc3ncc4c(c3c2)n(C2CCOCC2)c(=O)n4C)cn1 [AZD0156] (first compound max 10 µM, 7x7, partner max 1 µM)
N

// inclusive: combination Emax at least 0.3? input: COc1nnc2ccc(N3CCC(c4ccc(OCCN5CCN(C)C(=O)[C@H]5C)cc4)CC3)nn12 [AZD5153] + CCN(CCO)CCCOc1ccc2c(Nc3cc(CC(=O)Nc4cccc(F)c4)[nH]n3)ncnc2c1 [AZD2811] (first compound max 1 µM, 7x7, partner max 1 µM)
Y
